System: corn (Ze)
Assay: Test Example 11: crop plant selectivity by upland field foliage treatment (corn), phytotoxicity
Conditions: upland field foliage treatment, dose 1.6 g ai/10a, 14th day after treatment
Description: (Test on Crop Plant Selectivity by Upland Field Foliage Treatment) In a plastic pot (surface area: 600 cm^2) filled with sand, corn (Ze), pale smartweed (Po), slender amaranth (Am), common lambsquarters (Ch) and China jute (Ab) were sown and cultured in a green house for 2 weeks. […]
measurementKind: Phytotoxicity Ze

Incoming: What measured Phytotoxicity Ze goes with Cn1c(C(F)(F)F)ccc(-c2c(F)cc(Cl)c3oc(CO)cc23)c1=O ?
Outgoing: 1

Incoming: What measured Phytotoxicity Ze goes with C#CCN1C(=O)COc2cc(Cl)c(-c3ccc(C(F)(F)F)n(C)c3=O)cc21 ?
Outgoing: 2

Incoming: What measured Phytotoxicity Ze goes with COCOc1cc(-c2ccc(C(F)(F)F)n(C)c2=O)c(Cl)cc1Cl ?
Outgoing: 2

----------
Test system: soybean (Gl)
Assay: Test Example 6: crop plant selectivity by upland field soil treatment (soybean), phytotoxicity
Assay type: in vivo
Set-up: scale not given here
Conditions: dose 6.3 g ai/10a, 21st day after application
Text: (Test on Crop Plant Selectivity by Upland Field Soil Treatment) In a plastic pot (surface area: 600 cm^2) filled with sand, soybean (Gl), Diaitaria ciliaris (Di), green foxtail (Se), Johnsongrass (So), pale smartweed (Po), slender amaranth (Am), common lambsquarters (Ch) and China jute (Ab) were sown and covered with soil. […]
measurementKind: Phytotoxicity Gl

Incoming: Given the entry Cn1c(C(F)(F)F)ccc(-c2cc(Br)c(Cl)cc2F)c1=O , what Phytotoxicity Gl was observed with soybean (Gl)?
Outgoing: 2

Incoming: Given the entry C=CC(O)c1cc(-c2ccc(C(F)(F)F)n(C)c2=O)c(F)cc1Cl (centres unmarked) , what Phytotoxicity Gl was observed with soybean (Gl)?
Outgoing: 1

Incoming: Given the entry CCOc1cc(-c2ccc(C(F)(F)F)n(C)c2=O)c(F)cc1Cl , what Phytotoxicity Gl was observed with soybean (Gl)?
Outgoing: 1

Incoming: Given the entry Cn1c(C(F)(F)F)ccc(-c2cc(C#N)c(Cl)cc2F)c1=O , what Phytotoxicity Gl was observed with soybean (Gl)?
Outgoing: 2

Incoming: Given the entry C=CC(C)Oc1cc(-c2ccc(C(F)(F)F)n(C)c2=O)c(F)cc1Cl (centres unmarked) , what Phytotoxicity Gl was observed with soybean (Gl)?
Outgoing: 1

----------
Test system: pale smartweed (Po)
Assay: Test Example 5: crop plant selectivity by upland field soil treatment (wheat), herbicidal effects
Type: in vivo
Parameters: scale not given here
Conditions: dose 6.3 g ai/10a, 21st day after application
Source text: (Test on Crop Plant Selectivity by Upland Field Soil Treatment) In a plastic pot (surface area: 600 cm^2) filled with sand, wheat (Tr), Diaitaria ciliaris (Di), green foxtail (Se), pale smartweed (Po), slender amaranth (Am), common lambsquarters (Ch) and China jute (Ab) were sown and covered with soil. […]
measurementKind: Herbicidal effects Po
# output: bare number, no unit

Incoming: What measured Herbicidal effects Po goes with CON=C(C)c1cc(-c2ccc(C(F)(F)F)n(C)c2=O)c(F)cc1Cl [Compound 1-192] ?
Outgoing: 5

Incoming: What measured Herbicidal effects Po goes with CCC(C)Oc1cc(-c2ccc(C(F)(F)F)n(C)c2=O)c(F)cc1Cl (centres unmarked) [1-167] ?
Outgoing: 5

Incoming: What measured Herbicidal effects Po goes with CC(C)ON=Cc1cc(-c2ccc(C(F)(F)F)n(C)c2=O)c(F)cc1Cl [Compound 1-189] ?
Outgoing: 5

Incoming: What measured Herbicidal effects Po goes with Cc1cc2c(-c3cn(C)c(C(F)(F)F)cc3=O)c(F)cc(Cl)c2o1 [Compound No. 9-1] ?
Outgoing: 4

Incoming: What measured Herbicidal effects Po goes with CSCOc1cc(-c2ccc(C(F)(F)F)n(C)c2=O)c(F)cc1Cl [Compound 1-208] ?
Outgoing: 4

Incoming: What measured Herbicidal effects Po goes with CC(C)Sc1cc(-c2ccc(C(F)(F)F)n(C)c2=O)c(F)cc1Cl [1-43] ?
Outgoing: 5

Incoming: What measured Herbicidal effects Po goes with C#CC(C)Oc1cc(Cl)cc(F)c1-c1ccc(C(F)(F)F)n(C)c1=O (centres unmarked) [1′-5] ?
Outgoing: 5

Incoming: What measured Herbicidal effects Po goes with C#CCN1C(=O)COc2cc(F)c(-c3cn(C)c(C(F)(F)F)cc3=O)cc21 [Compound 7-1] ?
Outgoing: 5
